// provenance: PubChem BioAssay (NCI)

Test system: RPMI-8226 leukemia
test_protocol: NCI tumour cell line growth inhibition, 48 h; in the data active = GI50 below about 0.43 µM; inactive = the rest
Possible outcomes: TRUE for active, FALSE for inactive

>>> print(df.to_string())
                                   compound  answer_label
0  O=C(CCN1CCCC1)Nc1ccc2c(NCCc3ccccc3)c3ccccc3nc2c1          TRUE
1  COc1ccc(-c2nnc(SCC(=O)Nc3ccc(C(=O)/C=C/c4cc(OC)c(OC)c(OC)c4)cc3)n2-c2ccccc2)cc1OC          TRUE
2  CNC(=O)c1cc(Oc2ccc3nc(N[C@@H]4CCCC[C@H]4O)sc3c2)ccn1         FALSE
3  Cc1cc(NCc2cc(Nc3ccnc4cc(Cl)ccc34)ccc2F)nc(N2CCSCC2)n1         FALSE
4  CCOC(=O)Cn1c(-c2nonc2NC(=O)c2ccccc2F)nc2ccccc21         FALSE
5  CN1CCN(c2ccc3nc(-c4[nH]ncc4Nc4ncnc5c4OCCCN5)[nH]c3c2)CC1          TRUE
6  CCCCCCCCCCCC1=NC(C)(C)CN1CC(C)O (centres undefined)         FALSE
7  OCCn1cc(-c2cnc3nnn(Cc4ccc5ncccc5c4)c3n2)cn1         FALSE
8            Oc1ccc(Oc2cnc3cc(Cl)ccc3n2)cc1         FALSE

----------
System: UO-31 renal
test_protocol: NCI tumour cell line growth inhibition, 48 h
TGI values by entry
value_type: TGI

>>> print(df.to_string())
                            compound_smiles  measurement
0         CC(=O)OCCOCNC(=S)N/N=C(\C)c1cccs1     > 100 µM
1                             NCCS(=O)(=O)O     > 100 µM
2  CN1CCN(c2ccc3nc(-c4[nH]ncc4Nc4ncnc5c4OCCCN5)[nH]c3c2)CC1    0.0578 µM
3       COc1ccc(CCCN2c3ccccc3Sc3ccccc32)cc1     > 100 µM
4  COc1ccccc1NC(=O)C1=C(C)NC(C)=C(C(=O)Nc2ccccc2OC)C1c1cccc2ccccc12     > 100 µM
5  CCCCCCCCCCC[C@@H](C[C@H]1OC(=O)[C@H]1CCCCCC)OC(=O)[C@@H](CC(C)C)NC=O      59.6 µM

----------
Tested on: SNB-75 CNS
test_protocol: NCI tumour cell line growth inhibition, 48 h; in the data active = GI50 below about 0.43 µM; inactive = the rest
Classes used: active, inactive

>>> print(df.to_string())
                             compound_smiles  test_system  answer_label
 0  CN(C)c1ccc(Nc2c3ccccc3nc3cc(NC(=O)CCN4CCCC4)ccc23)cc1   SNB-75 CNS        active
 1  CNC(=O)c1cc(Oc2ccc3nc(N[C@@H]4CCCC[C@H]4O)sc3c2)ccn1   SNB-75 CNS      inactive
 2  Fc1cccc(Cl)c1Cn1c(-c2c(F)cccc2Cl)nc2ccccc21   SNB-75 CNS      inactive
 3  CC(C)C[CH2][Ge]([CH2]CC(C)C)([CH2]CC(C)C)[CH2]CC(C)C   SNB-75 CNS      inactive
 4  CCCCCCCCCCC[C@@H](C[C@H]1OC(=O)[C@H]1CCCCCC)OC(=O)[C@@H](CC(C)C)NC=O   SNB-75 CNS      inactive
 5  O=c1c2c(=NCCN3CCCC3)cc3c(=O)n(CCCN4CCOCC4)c(=O)c4ccc(c(O)n1CCCN1CCOCC1)c2c4-3   SNB-75 CNS        active
 6  O=C(CCN1CCCC1)Nc1ccc2c(NCCc3ccccc3)c3ccccc3nc2c1   SNB-75 CNS      inactive
 7  COc1cc(-c2nc3cc(Cl)c(Cl)cc3[nH]2)ccc1OCC(=O)N=Nc1c(O)[nH]c2ccc(Cl)cc12   SNB-75 CNS      inactive
 8  COc1cc(C(=O)O/N=C(\N)Cc2cccc3ccccc23)cc(OC)c1OC   SNB-75 CNS      inactive
 9  OCCn1cc(-c2cnc3nnn(Cc4ccc5ncccc5c4)c3n2)cn1   SNB-75 CNS      inactive
10  O=C(c1nn(-c2ccc(Cl)cc2)cc1O)n1nc(C(F)(F)F)cc1-c1ccccc1   SNB-75 CNS      inactive

----------
Tested on: UACC-257 melanoma
test_protocol: NCI tumour cell line growth inhibition, 48 h
value_type: TGI (µM)

>>> df
                                   compound  result_comparator  measurement
0  CCOc1ccc(NCC2CC/C(=C\c3ccc(Cl)cc3)C2=O)cc1 (stereo not given)                  >         56.1
1  CC(=O)N1C(Nc2cccc3nc(C)ccc23)CCN1c1ccccc1 (stereo not given)                  >           10
2  COC1C(CO)OC(n2c3c(Cl)cccc3c3c4c(c5c6cccc(Cl)c6[nH]c5c32)C(=O)NC4=O)C(O)C1O (stereo not given)                  =         1.75
3  CC1CCOc2ccc(cc2)C=Nc2ccc(cc2)-c2ccc(cc2)N=Cc2ccc(cc2)OCC1 (stereo not given)                  >          100
4  COc1ccc2c(c1)C(=O)c1c-2c(N2CCN(C(=O)CNCCN(C)C)CC2)nc2ccccc12                  =          3.7
5   CCOc1cc2c(=O)oc3c(OC)ccc4ccc(c1OC)c2c43                  >          100
6     Cc1ccc2nc3c(n2c1)C(=O)C(=O)c1ccccc1-3                  =        0.382
7           N#Cc1c(N2CCCC2)nsc1Nc1ccc(F)cc1                  >          100
8  O=C(Nc1ccc(Nc2ccncc2)cc1)c1ccc(Nc2ccnc3ccc([N+](=O)[O-])cc23)cc1[N+](=O)[O-]                  =         29.5
9  C[N+]1([O-])[C@H]2CC(OC(=O)[C@H](CO)c3ccccc3)C[C@H]1[C@H]1O[C@H]12 (stereo not given in full)                  >          100

----------
Tested on: ACHN renal
test_protocol: NCI tumour cell line growth inhibition, 48 h
Listed below: TGI values for each entry.
value_type: TGI

>>> df
                                   compound  measurement
0  COc1ccc(OC(C)C(=O)O)c2c1CCCC2=O (centres undefined)     > 100 µM
1  CS(=O)(=O)OCC1CCCCCCCCCCC12SCCCS2 (centres undefined)     > 100 µM
2            O=S1(=O)OCCCOS(=O)(=O)C1(Br)Br     > 100 µM
3  Cn1c(COC(=O)NC2CCCCC2)c(COC(=O)NC2CCCCC2)c2ccc3cc(C=O)ccc3c21     > 100 µM

----------
Tested on: A498 renal
test_protocol: NCI tumour cell line growth inhibition, 48 h
TGI values for the molecules below.

molecule	TGI
CNC(=O)c1cc(Oc2ccc3nc(N[C@@H]4CCCC[C@H]4O)sc3c2)ccn1	> 100 µM
CN(C(=O)C12C3C4C1C1C2C3C41C(O)C(C)(C)C)C(C)(C)C (stereo not given)	> 100 µM
CN(C)C=NCC(O)c1ccccc1 (stereo not given)	> 100 µM
Cc1cn([C@H]2C[C@H](O)[C@@H](CO)O2)c(=O)nc1N	> 100 µM
CN(C)C(=S)/N=c1\ss/c(=N\C(=S)N(C)C)n1Cc1ccco1	> 100 µM
CCN(CC)c1ccc2cc(C(N)=O)c(=Nc3ccc(F)cc3)oc2c1	> 100 µM
O=C(Nc1ccc(Nc2ccncc2)cc1)c1ccc(Nc2ccnc3ccc([N+](=O)[O-])cc23)cc1[N+](=O)[O-]	> 62.2 µM
C[N+]1([O-])[C@H]2CC(OC(=O)[C@H](CO)c3ccccc3)C[C@H]1[C@H]1O[C@H]12 (stereo not given in full)	> 100 µM
OCC1OC(c2ccccc2)CC1O (stereo not given)	> 100 µM
CN(C)CC1CCCCCC(Br)C1=O (stereo not given)	> 100 µM
CCOc1ccc(NCC2CC/C(=C\c3ccc(Cl)cc3)C2=O)cc1 (stereo not given)	> 95.9 µM
COc1ccc([C@H]2c3cc4c(cc3OC(O)(CO)[C@H]2C(=O)O)OCO4)c(OC)c1 (stereo not given in full) (tested in a mixture with another compound)	> 100 µM
CCOC1NC(/N=C/c2ccc(OC)cc2)=C(C#N)C1C#N (stereo not given)	> 100 µM
COc1ccc(/C=C\c2cc(OC)c(OC)c(OC)c2)cc1OCC(=O)Nc1nc2ccccc2s1	> 83.4 µM
CC1C(C#N)(C#N)C(C#N)=C(N)C1(C)[N+](=O)[O-] (stereo not given)	> 100 µM
NC(CCc1ncc(-c2ccccc2)s1)C(=O)O (stereo not given)	> 100 µM
OCC(O)COc1c(Cl)cc(Cl)cc1Cl (stereo not given)	> 100 µM
CCOC(=O)c1ccccc1SC(C[N+](=O)[O-])c1ccccc1 (stereo not given)	16 µM
CCCCCCCCCCC[C@@H](C[C@H]1OC(=O)[C@H]1CCCCCC)OC(=O)[C@@H](CC(C)C)NC=O	29.9 µM
COc1ccc(C2=NNC(c3cc4cc(Br)ccc4nc3Cl)C2)cc1 (stereo not given)	> 25 µM
Cc1ccc2c(=O)cc(Cc3csc4ccccc34)[nH]c2n1	> 100 µM
C[N+](C)(C)CC(=O)N/N=C(/Cc1nc2ccc([N+](=O)[O-])cc2[nH]c1=O)C(=O)Nc1cc(C(F)(F)F)ccc1Cl	> 100 µM
COc1ccc(C2C(C#N)=C(S)N(C3OC(CO)C(O)C(O)C3O)C(C)=C2C(C)=O)cc1 (stereo not given)	> 100 µM
Nc1nc(-c2ccc(Cl)cc2)cc(-c2ccc(Cl)cc2)c1-c1nc2ccccc2o1	34.6 µM
O=Cc1c(Br)[nH]c2ccccc12	> 100 µM
